Hey, just so you know, these numbers are from the supplement of paper PMC10567573.

B1: RAD54B (parent)
chain: YVQEKRDGLKRRQQLEEELLRAKI

Variants of: B1
Assay: protein stability index of a GFP-peptide fusion (GPS, HEK-293T) (PSI 1-6); higher = more stable;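 further: lentivirally expressed fusions sorted by FACS into six bins by GFP to DsRed ratio, PSI derived from sequencing read proportions per bin multiplied by bin number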
Conditions: c terminus: a fixed tail appended
recorded-endpoint: protein stability index
Numbers only.

For each entry beneath this line, provide reported protein stability index.
1. E17P
2. Q13F
3. V2M
4. D7I

1: 1.98; 2: 1.62; 3: 3.65; 4: 2.13

Below is a list of variants. For each, state its recorded protein stability index.
1. R12M
2. K5V
3. R12L
4. L20G
5. R6C
6. L20Q

2.02
2.1
1.98
2.08
2.32
1.75

# batch: return protein stability index for each of the 3 variants below
1. L15A
2. V2T
3. L19D

1. 1.93
2. 3.75
3. 2.3

For each of the variants below, note its protein stability index.
1. R21C
2. K10A
3. E16K

[1.87, 2.04, 1.67]
